Give Reduced relative colony forming efficiency, expressed as % inhibition, A549 for every item shown.
System: A549 lung cell carcinoma
Assay: Relative colony forming efficiency after antisense treatment (Table 13)
Type: cell-based, human
Conditions: 0.2 μM antisense oligodeoxyribonucleotide phosphorothioate; A549 cells; averages of 2-8 determinations
Strand notation (5' to 3'): a small letter for the sugar, then the base; units joined by * are phosphorothioate-linked, units joined directly phosphodiester-linked; [ ] holds rarer units or linkages, { } end groups; capitals alone tell only the bases. d = 2'-deoxy (DNA)
# unit: % | format: bare number

Recorded Reduced relative colony forming efficiency, expressed as % inhibition, A549 for GGCTAAATCGCTCCACCAAG (dG*dG*dC*dT*dA*dA*dA*dT*dC*dG*dC*dT*dC*dC*dA*dC*dC*dA*dA*dG) [AS-II-626-20] , please?
95.14

Recorded Reduced relative colony forming efficiency, expressed as % inhibition, A549 for GCGGCGGGGGTTTTCTCTCA (dG*dC*dG*dG*dC*dG*dG*dG*dG*dG*dT*dT*dT*dT*dC*dT*dC*dT*dC*dA; antisense) [AS-II-412-20] , please?
43.78

Recorded Reduced relative colony forming efficiency, expressed as % inhibition, A549 for TCAGGCAAGCAAAATCACAG (DNA, all phosphorothioate, methylation of C not given here) [AS-II-1001-20] , please?
71.36

====

Give Reduced relative colony forming efficiency, expressed as % inhibition, A549 for every item shown.
System: A549 lung cell carcinoma
Assay: Relative colony forming efficiency after antisense treatment (Table 13)
Assay type: cell-based, human
Conditions: 0.2 μM antisense oligodeoxyribonucleotide phosphorothioate; A549 cells; averages of 2-8 determinations
Strand notation (5' to 3'): a small letter for the sugar, then the base; units joined by * are phosphorothioate-linked, units joined directly phosphodiester-linked; [ ] holds rarer units or linkages, { } end groups; capitals alone tell only the bases. d = 2'-deoxy (DNA)

Give A549 lung cell carcinoma Reduced relative colony forming efficiency, expressed as % inhibition, A549 for ACCCCTCACTCCAGCAGCCT (antisense dA*dC*dC*dC*dC*dT*dC*dA*dC*dT*dC*dC*dA*dG*dC*dA*dG*dC*dC*dT) [AS-II-110-20]
89.38%

Give A549 lung cell carcinoma Reduced relative colony forming efficiency, expressed as % inhibition, A549 for TTGTGTACCAGGTGTTTGAA (DNA, all phosphorothioate, methylation of C not given here) [AS-II-1023-20]
34.52%

Give A549 lung cell carcinoma Reduced relative colony forming efficiency, expressed as % inhibition, A549 for CCTGTCTTCTATCTGGCACC (antisense; DNA, all phosphorothioate, methylation of C not given here) [AS-II-1989-20]
83.9%

Give A549 lung cell carcinoma Reduced relative colony forming efficiency, expressed as % inhibition, A549 for GGCCCAGATCACCCCTAAAT (antisense; DNA, all phosphorothioate, methylation of C not given here) [AS-II-2128-20]
87.31%

Give A549 lung cell carcinoma Reduced relative colony forming efficiency, expressed as % inhibition, A549 for ATGGTACTCGATGGGGAAGA (dA*dT*dG*dG*dT*dA*dC*dT*dC*dG*dA*dT*dG*dG*dG*dG*dA*dA*dG*dA) [AS-II-439-20]
76.46%

Give A549 lung cell carcinoma Reduced relative colony forming efficiency, expressed as % inhibition, A549 for CTGCTTTAGTTTTCGGCTCC (dC*dT*dG*dC*dT*dT*dT*dA*dG*dT*dT*dT*dT*dC*dG*dG*dC*dT*dC*dC; antisense) [AS-II-362-20]
61.81%

====

Tested on: H596 lung adenosquamous carcinoma cells
Test: Relative colony forming efficiency after antisense treatment (Table 13)
Format: cell-based, human
Details: 0.2 μM antisense oligodeoxyribonucleotide phosphorothioate, averages of 2-8 determinations
Strand notation (5' to 3'): a small letter for the sugar, then the base; units joined by * are phosphorothioate-linked, units joined directly phosphodiester-linked; [ ] holds rarer units or linkages, { } end groups; capitals alone tell only the bases. d = 2'-deoxy (DNA)
Metric Name: Reduced relative colony forming efficiency, expressed as % inhibition, H596 (%)
# unit: % | format: bare number

Recorded Reduced relative colony forming efficiency, expressed as % inhibition, H596 for GAGCAGCCAGGACAGGACGG (antisense dG*dA*dG*dC*dA*dG*dC*dC*dA*dG*dG*dA*dC*dA*dG*dG*dA*dC*dG*dG) [AS-II-151-20] , please?
69.12

Recorded Reduced relative colony forming efficiency, expressed as % inhibition, H596 for GTAAGTCACAGCCAGCCAGG (DNA, all phosphorothioate, methylation of C not given here) [AS-II-1560-20] , please?
71.16

Recorded Reduced relative colony forming efficiency, expressed as % inhibition, H596 for GsCCsTCCGsACCsCTTCsCCsATTsG (antisense dG*dCdC*dTdCdCdG*dAdCdC*dCdTdTdC*dCdC*dAdTdT*dG) [AS-II-13-20] , please?
19.68

====

Test system: T24 bladder cell carcinoma
Assay: Relative colony forming efficiency after antisense treatment (Table 13)
Format: cell-based, human
Settings: 0.2 μM antisense oligodeoxyribonucleotide phosphorothioate; T24 cells; averages of 2-8 determinations
Strand notation (5' to 3'): a small letter for the sugar, then the base; units joined by * are phosphorothioate-linked, units joined directly phosphodiester-linked; [ ] holds rarer units or linkages, { } end groups; capitals alone tell only the bases. d = 2'-deoxy (DNA)
Bucketed by reported Reduced relative colony forming efficiency, expressed as % inhibition, T24, buckets being zone 1 (below 60%), zone 2 (60% to below 70%), zone 3 (70% or more)

For the record GCAAAGAAAGCCAGAACATG (dG*dC*dA*dA*dA*dG*dA*dA*dA*dG*dC*dC*dA*dG*dA*dA*dC*dA*dT*dG; antisense) [AS-II-579-20] , report the class its Reduced relative colony forming efficiency, expressed as % inhibition, T24 corresponds to.
zone 3

For the record GGCCCAGATCACCCCTAAAT (antisense; DNA, all phosphorothioate, methylation of C not given here) [AS-II-2128-20] , report the class its Reduced relative colony forming efficiency, expressed as % inhibition, T24 corresponds to.
zone 3

For the record TCCTCGGCGGTCCAAA (dT*dC*dC*dT*dC*dG*dG*dC*dG*dG*dT*dC*dC*dA*dA*dA) [AS-II-496-16] , report the class its Reduced relative colony forming efficiency, expressed as % inhibition, T24 corresponds to.
zone 3

For the record GCGGCGGGGGTTTTCTCTCA (dG*dC*dG*dG*dC*dG*dG*dG*dG*dG*dT*dT*dT*dT*dC*dT*dC*dT*dC*dA; antisense) [AS-II-412-20] , report the class its Reduced relative colony forming efficiency, expressed as % inhibition, T24 corresponds to.
zone 1

For the record GCTCCCACATATGAAAACTC (antisense; DNA, all phosphorothioate, methylation of C not given here) [AS-II-2229A-20] , report the class its Reduced relative colony forming efficiency, expressed as % inhibition, T24 corresponds to.
zone 1

For the record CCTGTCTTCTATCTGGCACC (antisense; DNA, all phosphorothioate, methylation of C not given here) [AS-II-1989-20] , report the class its Reduced relative colony forming efficiency, expressed as % inhibition, T24 corresponds to.
zone 3

For the record AGCTGCTGCGGGTCCGTGAT (dA*dG*dC*dT*dG*dC*dT*dG*dC*dG*dG*dG*dT*dC*dC*dG*dT*dG*dA*dT; antisense) [AS-II-225-20] , report the class its Reduced relative colony forming efficiency, expressed as % inhibition, T24 corresponds to.
zone 3

For the record CAAATGGGTTCTCTACTCTG (DNA, all phosphorothioate, methylation of C not given here) [AS-II-1217-20] , report the class its Reduced relative colony forming efficiency, expressed as % inhibition, T24 corresponds to.
zone 2

For the record CAGAATATCGACGCAAAAGA (antisense; DNA, all phosphorothioate, methylation of C not given here) [AS-II-909-20] , report the class its Reduced relative colony forming efficiency, expressed as % inhibition, T24 corresponds to.
zone 3

For the record TTCTCTTACTCTCTCCTCCG (DNA, all phosphorothioate, methylation of C not given here) [AS-II-1048-20] , report the class its Reduced relative colony forming efficiency, expressed as % inhibition, T24 corresponds to.
zone 1

For the record CsCCCsTCACsTCCsAGCsAGCsCTsT (antisense dC*dCdCdC*dTdCdAdC*dTdCdC*dAdGdC*dAdGdC*dCdT*dT) [AS-II-109-20] , report the class its Reduced relative colony forming efficiency, expressed as % inhibition, T24 corresponds to.
zone 1

For the record CCCCTTCAGCGGCG (dC*dC*dC*dC*dT*dT*dC*dA*dG*dC*dG*dG*dC*dG) [AS-II-253-14] , report the class its Reduced relative colony forming efficiency, expressed as % inhibition, T24 corresponds to.
zone 1

For the record CGTTGAGGAAAATACAGTGA (antisense; DNA, all phosphorothioate, methylation of C not given here) [AS-II-2182-20] , report the class its Reduced relative colony forming efficiency, expressed as % inhibition, T24 corresponds to.
zone 2

For the record TTCTGGCAAAAGGTGATACT (DNA, all phosphorothioate, methylation of C not given here) [AS-II-1538-20] , report the class its Reduced relative colony forming efficiency, expressed as % inhibition, T24 corresponds to.
zone 2

For the record CGGCGGCGTGTTCTCCTTGT (dC*dG*dG*dC*dG*dG*dC*dG*dT*dG*dT*dT*dC*dT*dC*dC*dT*dT*dG*dT; antisense) [AS-II-280-20] , report the class its Reduced relative colony forming efficiency, expressed as % inhibition, T24 corresponds to.
zone 3

For the record TATCGCCGCCGTGAGTACAA (DNA, all phosphorothioate, methylation of C not given here) [AS-II-1768-20] , report the class its Reduced relative colony forming efficiency, expressed as % inhibition, T24 corresponds to.
zone 3

For the record GACACAAGGCATCGTTTCAA (antisense; DNA, all phosphorothioate, methylation of C not given here) [AS-II-784-20] , report the class its Reduced relative colony forming efficiency, expressed as % inhibition, T24 corresponds to.
zone 3
